Attribution: ChEMBL document CHEMBL4028801

Assay: AUC in patient with osteomyelitis at 1500 mg, po QD after 24 hrs
Assay type: ADME, organism-based
Design: time < 24 hr, dose 1500 mg, route oral
Conditions: human, in vivo
REPORTED METRIC: AUC at 24 h (µM·h)
Form entry: value (µM·h) — number only.

# AUC at 24 h of CC(=O)O[C@H]1C[C@@]2(C)[C@@H](C[C@@H](O)[C@H]3[C@@]4(C)CC[C@@H](O)[C@@H](C)[C@@H]4CC[C@@]32C)/C1=C(\CCC=C(C)C)C(=O)O [FUSIDIC ACID] = 6390

----------
Assay: AUC in human at 75 to 100 mg, po QID after 6 hrs
Assay type: ADME, organism-based
Conditions: in vivo
REPORTED METRIC: AUC at 6 h (µM·h)
Please respond with the number in µM·h and leave the unit unwritten.

GET /value?item= OCCN(CCO)c1nc(N2CCCCC2)c2nc(N(CCO)CCO)nc(N3CCCCC3)c2n1 [DIPYRIDAMOLE] &field=AUC at 6 h returns 6.82

----------
Experiment: AUC in human at 1 to 16 mg or 4 to 8 mg, po QD extended-release tablets after 24 hrs
Format: ADME, organism-based
Settings: in vivo
REPORTED METRIC: AUC at 24 h (µM·h)
Numbers only; they are read as µM·h.

Measured AUC at 24 h, COc1cc2nc(N3CCN(C(=O)C4COc5ccccc5O4)CC3)nc(N)c2cc1OC.CS(=O)(=O)O (stereo unspecified) [DOXAZOSIN MESYLATE] : 1.64

----------
Experiment: Drug concentration at steady state in human at 100 to 200 mg, po QD after 24 hrs
Assay type: ADME, organism-based
Details: in vivo, read-out: Css
REPORTED METRIC: concentration at 24 h (nM)
Only the number, expressed in nM, is required.

So, CCc1oc2ccccc2c1C(=O)c1cc(Br)c(O)c(Br)c1 ? Its concentration at 24 h was 1880

----------
Test: AUC in human at 1250 mg, po QD after 24 hrs
Assay type: ADME, organism-based
Parameters: time < 24 hr, dose 1250 mg, route oral
Settings: in vivo
REPORTED METRIC: AUC at 24 h (µM·h)
Write the answer as a number in µM·h, unit excluded.

// recorded AUC at 24 h for CS(=O)(=O)CCNCc1ccc(-c2ccc3ncnc(Nc4ccc(OCc5cccc(F)c5)c(Cl)c4)c3c2)o1.Cc1ccc(S(=O)(=O)O)cc1 : 62.3

----------
Test: AUC in human at 10 to 20 mg, po QID after 6 hrs
Format: ADME, organism-based
Details: in vivo
REPORTED METRIC: AUC at 6 h (µM·h)
The figure you give is taken to be in µM·h; do not add the unit.

# AUC at 6 h (compound: COc1cc(N)c(Cl)cc1C(=O)NC1CCN(CCCOc2ccc(F)cc2)CC1OC.O (stereo unspecified) [CISAPRIDE MONOHYDRATE] ) is 4.78

----------
Experiment: Drug concentration at steady state in human at 1 to 4 mg, po QD after 24 hrs
Assay type: ADME, organism-based
Settings: in vivo, read-out: Css
REPORTED METRIC: concentration at 24 h (nM)
Express it in nM; write the number only.

Reported concentration at 24 h of CCC1=C(C)CN(C(=O)NCCc2ccc(S(=O)(=O)NC(=O)N[C@H]3CC[C@H](C)CC3)cc2)C1=O [GLIMEPIRIDE] : 141

----------
Test: AUC in human at 400 mg, po BID after 12 hrs
Type: ADME, organism-based
Design: time < 12 hr, dose 400 mg, route oral
Conditions: in vivo
REPORTED METRIC: AUC at 12 h (µM·h)
Just the number please, in µM·h, no unit attached.

Value of AUC at 12 h reported for the compound CCCCc1oc2ccc(NS(C)(=O)=O)cc2c1C(=O)c1ccc(OCCCN(CCCC)CCCC)cc1.Cl [DRONEDARONE HYDROCHLORIDE] is 1.6

----------
Assay: AUC in human at 200 to 600 mg, po QD after 24 hrs
Format: ADME, organism-based
Conditions: in vivo
REPORTED METRIC: AUC at 24 h (µM·h)
# output: bare number, implied unit µM·h

The recorded AUC at 24 h for entry Cc1c(C)c2c(c(C)c1O)CCC(C)(COc1ccc(CC3SC(=O)NC3=O)cc1)O2 (stereo unspecified) [TROGLITAZONE] equals 22.5

----------
Assay: AUC in alopecia patient at 1 mg, po QD after 24 hrs
Format: ADME, organism-based
Design: time < 24 hr, dose 1 mg, route oral
Conditions: human, in vivo
REPORTED METRIC: AUC at 24 h
Remember to quote the unit after the number.

So, CC(C)(C)NC(=O)[C@H]1CC[C@H]2[C@@H]3CC[C@H]4NC(=O)C=C[C@]4(C)[C@H]3CC[C@]12C [FINASTERIDE] ? Its AUC at 24 h was 0.993 µM·h

----------
Assay: Drug concentration at steady state in human at 300 to 600 mg, po QD after 24 hrs
Type: ADME, organism-based
Details: in vivo, read-out: Css
REPORTED METRIC: concentration at 24 h (nM)
Number in nM, nothing else.

For reference, reported concentration at 24 h for CCc1nn(CCCN2CCN(c3cccc(Cl)c3)CC2)c(=O)n1CCOc1ccccc1 stands at 604

----------
Entries and their measured pIC50 follow.
Biological target: UniProtKB O95342
Experiment: Inhibition of human BSEP overexpressed in Sf9 cell membrane vesicles assessed as uptake of [3H]-taurocholate in presence of ATP measured after 15 to 20 mins by membrane vesicle transport assay
Kindly note that pIC50 refers to -log10 of the concentration in mol/L and answer with the value alone.

Take a look at these entries with their results.
{"COMPOUND": "CCCCC1=NC2(CCCC2)C(=O)N1Cc1ccc(-c2ccccc2-c2nnn[nH]2)cc1", "ASSAY VALUE": 5.14}
{"COMPOUND": "CCCCC(=O)OCC(=O)[C@]1(O)Cc2c(O)c3c(c(O)c2[C@@H](O[C@H]2C[C@H](NC(=O)C(F)(F)F)[C@H](O)[C@H](C)O2)C1)C(=O)c1c(OC)cccc1C3=O", "ASSAY VALUE": 4.62}

Shifting focus to the compound that follows.
The compound listed as CC(=O)O.C[C@@H](O)[C@@H]1NC(=O)[C@H](CCCCN)NC(=O)[C@@H](Cc2c[nH]c3ccccc23)NC(=O)[C@H](Cc2ccccc2)NC(=O)[C@@H](NC(=O)[C@H](N)Cc2ccccc2)CSSC[C@@H](C(=O)N[C@H](CO)[C@@H](C)O)NC1=O [OCTREOTIDE ACETATE] has a reported pIC50 of 5.03

----------
Assay: AUC in human at 2.5 to 20 mg, po QD after 24 hrs
Assay type: ADME, organism-based
Settings: in vivo
REPORTED METRIC: AUC at 24 h (µM·h)
Hi! Could you send only the number? It should be in µM·h, unit omitted.

// sample COC(=O)C1=C(C)NC(C)=C(C(=O)OC(C)C)C1c1cccc2nonc12 (stereo unspecified) , its AUC at 24 h was 0.197

----------
Assay: Drug concentration at steady state in human at 600 mg administered twice weekly followed by 600 mg administered once in a week measured after 84 hrs
Type: ADME
Details: in vivo, read-out: Css
REPORTED METRIC: concentration at 84 h (µM)
Quick reminder: number only, in µM, skip the unit.

The recorded concentration at 84 h for CO[C@H]1/C=C/O[C@@]2(C)Oc3c(C)c(O)c4c(O)c(c(/C=N/N5CCN(C6CCCC6)CC5)c(O)c4c3C2=O)NC(=O)/C(C)=C\C=C\[C@H](C)[C@H](O)[C@@H](C)[C@@H](O)[C@@H](C)[C@H](OC(C)=O)[C@@H]1C is 4.7

----------
Experiment: Drug concentration at steady state in human at 1250 mg, po QD after 24 hrs
Format: ADME, organism-based
Conditions: in vivo, read-out: Css
REPORTED METRIC: concentration at 24 h

molecule CS(=O)(=O)CCNCc1ccc(-c2ccc3ncnc(Nc4ccc(OCc5cccc(F)c5)c(Cl)c4)c3c2)o1.Cc1ccc(S(=O)(=O)O)cc1 , concentration at 24 h observed: 2.6 µM

----------
Each entry below carries its reported pIC50.
Biological target: Bile salt export pump (Homo sapiens, UniProt O95342)
Sequence (O95342 whole entry): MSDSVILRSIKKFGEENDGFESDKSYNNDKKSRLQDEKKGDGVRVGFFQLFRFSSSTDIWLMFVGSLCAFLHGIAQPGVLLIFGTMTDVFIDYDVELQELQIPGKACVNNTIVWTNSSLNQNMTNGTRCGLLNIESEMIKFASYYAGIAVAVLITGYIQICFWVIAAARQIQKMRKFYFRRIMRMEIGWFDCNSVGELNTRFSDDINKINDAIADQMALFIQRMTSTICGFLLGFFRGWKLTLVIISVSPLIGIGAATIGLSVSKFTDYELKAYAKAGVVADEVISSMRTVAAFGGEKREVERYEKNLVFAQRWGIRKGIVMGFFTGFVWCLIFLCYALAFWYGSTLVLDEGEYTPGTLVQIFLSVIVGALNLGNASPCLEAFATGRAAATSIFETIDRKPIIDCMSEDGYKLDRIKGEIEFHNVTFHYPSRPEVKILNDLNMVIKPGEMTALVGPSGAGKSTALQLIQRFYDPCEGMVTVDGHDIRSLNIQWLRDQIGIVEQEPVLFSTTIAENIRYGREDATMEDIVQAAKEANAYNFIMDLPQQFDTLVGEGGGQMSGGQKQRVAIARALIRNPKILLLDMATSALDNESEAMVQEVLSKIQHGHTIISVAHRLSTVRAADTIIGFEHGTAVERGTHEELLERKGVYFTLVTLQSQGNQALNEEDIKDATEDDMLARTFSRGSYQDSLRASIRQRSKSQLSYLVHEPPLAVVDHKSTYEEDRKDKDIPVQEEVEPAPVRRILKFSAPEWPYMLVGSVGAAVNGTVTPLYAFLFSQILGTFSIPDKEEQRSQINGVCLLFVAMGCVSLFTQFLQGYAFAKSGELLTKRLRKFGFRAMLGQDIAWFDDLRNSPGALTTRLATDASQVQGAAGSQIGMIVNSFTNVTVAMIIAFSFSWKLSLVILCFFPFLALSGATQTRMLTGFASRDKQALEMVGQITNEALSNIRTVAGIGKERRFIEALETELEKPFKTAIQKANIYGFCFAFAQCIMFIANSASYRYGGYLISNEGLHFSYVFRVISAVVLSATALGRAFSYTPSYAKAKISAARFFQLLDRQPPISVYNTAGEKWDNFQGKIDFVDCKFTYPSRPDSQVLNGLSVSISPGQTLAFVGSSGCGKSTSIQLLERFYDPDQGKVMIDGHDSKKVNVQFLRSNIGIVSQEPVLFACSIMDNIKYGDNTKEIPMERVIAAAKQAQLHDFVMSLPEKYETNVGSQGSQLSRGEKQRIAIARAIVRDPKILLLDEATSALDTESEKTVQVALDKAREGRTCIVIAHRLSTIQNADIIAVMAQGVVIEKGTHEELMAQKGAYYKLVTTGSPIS
Assay: Inhibition of human BSEP overexpressed in Sf9 cell membrane vesicles assessed as uptake of [3H]-taurocholate in presence of ATP measured after 15 to 20 mins by membrane vesicle transport assay
Assay type: ADME, cell-based
pIC50: −log10 of the molar value.

{"RESIDUE CODES": "BIVALIRUDIN", "ASSAY VALUE": "< 3.88"}

As a next step, examine the sequence that follows.
Case SPIRAMYCIN , Bile salt export pump (Homo sapiens, UniProt O95342), pIC50 recorded as < 3.88
